Let's look at some compounds and their measured solubility kinetic at 2 h.
# procedure_text: Solubility of the compound in phosphate buffered saline containing 1% DMSO at pH 7.4 after 2 hrs by HPLC analysis
# Assay type: physicochemical
Quote the value and follow it with the unit of measurement.

{"columns": ["smiles_record", "solubility kinetic at 2 h"],
 "data": [
  ["COc1ccc(Oc2cc(C)c(-c3csc(NC(=O)c4ccnc(F)c4)n3)c(C)c2)cc1", "0.19 µM"]
]}

// moving on: another record for solubility kinetic at 2 h
[ask] Using the record for Cc1cc(C)c(-c2csc(NC(=O)c3ccncc3)n2)c(C)c1 , report its solubility kinetic at 2 h.
[reply] 3.33 µM

Source of measurements: ChEMBL document CHEMBL3259640
